Test system: ClbPFL (full-length ClbP)
Test: In vitro cleavage of synthetic substrates by ClbPFL, LC-MS detection
Type: biochemical, E. coli
Conditions: LC-MS detection of cleavage product
experimentalEndpoint: cleavage by ClbPFL in vitro

compound: CCCCCCCCCCCCCC(=O)N[C@H](CC(N)=O)C(=O)N[C@@H](C)CCC(=O)CC(=O)NC1(C(=O)O)CC1 [(1)]
result: rapidly in vitro
//
compound: CCCCCCCCCCCCCC(=O)N[C@H](CC(N)=O)C(=O)N[C@@H](C)CCC(=O)CC(=O)NC1(C(=O)O)CC1 [Compound 1]
result: rapidly in vitro
